Reference source: a melting point compilation (Tetko et al.; mined from patent text by program, amines drawn as free bases though some values may be those of a salt)

Reported melting point by item:

# annotated cases, reported melting point shown
Clc1nnc(Cc2ccc(OCc3ccccc3)cc2)c2ccccc12: 150 to 152 °C
OC[C@H]1CC[C@H](c2ccc(F)cc2)CC1: 65 to 70 °C
COc1ccc(CNc2cc(C(c3cc(F)ccc3F)S(=O)(=O)c3ccc(Cl)cc3)c(Cl)cn2)cc1OC (stereo not drawn): 204 to 206 °C
O=[N+]([O-])c1ccccc1Nc1ccc(I)cc1: 171 to 172 °C
CS(=O)(=O)Nc1cccc(CNC(=O)c2nc3ccccc3c(=O)[nH]2)c1: 240 to 248 °C

Query: melting point; subject: `CC(=O)Oc1c(C)sc2ccccc12`
75 to 77 °C

Do the same for `CC1(C)CC(OC(=O)c2ccc(CN(O)Cc3ccc(C(=O)OC4CC(C)(C)N(OC5CCCCC5)C(C)(C)C4)cc3)cc2)CC(C)(C)N1OC1CCCCC1` please
163 to 166 °C

Do the same for `O=C(O)CC(=O)N1CCSCC1` please
119 to 120 °C

Do the same for O=S(=O)(c1ccccc1F)N1CCCC1c1ccc(F)cc1 (racemic) please
91 °C

Do the same for `O=C(CN1CCC(Cc2ccc(F)cc2)CC1)Nc1ccc2c(c1)OCC(=O)N2` please
209 to 211 °C

Do the same for `CC[C@H](COCC#Cc1ccccc1)n1cnc2c(N)nc3ccccc3c21` please
63 to 67 °C

Do the same for `OCCCNc1cc(-c2ccnc(Nc3cccc(OC(F)(F)C(F)F)c3)n2)ccn1` please
141 to 145 °C

Do the same for `CC(=O)OCCCC(=O)CC(=O)c1ccccc1` please
48 to 49 °C

Do the same for `COCCOc1ccc(CCNC(=O)OCc2ccccc2)c(Oc2ncc(C(F)(F)F)cc2Cl)c1` please
102 to 103 °C

Do the same for `CCCCCCCCCCCCN(N)C(=O)NC` please
73 to 75 °C

Do the same for `CCn1c(=N)c(-c2ccc3ccccc3c2)cc2cnc(Nc3ccccc3)nc21` please
236 to 242 °C

Do the same for COC(=O)C1=C(C(OC)OC)NC(C)=C(C(=O)OCC(C)C)C1c1ccccc1C#N (stereo not drawn) please
126 to 128 °C

Do the same for `CNc1c([N+](=O)[O-])cc2c(=O)c(C(=O)O)cn(-c3cc(N)c(F)cc3F)c2c1C` please
275 to 281 °C

Do the same for `COc1cc(O[Si](C)(C)C(C)(C)C)c(C)c(C(=O)O)c1Br` please
120 to 125 °C

Do the same for `CCOc1nc2cccc(C(=O)OCOC(=O)C(C)(C)C)c2n1Cc1ccc(-c2ccccc2-c2nnn[nH]2)cc1` please
104 to 106 °C

---

endpoint.name: melting point

# annotated cases, reported melting point shown
COc1cc(CC(=O)Nc2ccc(C3CN(C(C)=O)CC3C(=O)O)cc2)ccc1NC(=O)Nc1ccccc1C (stereo not drawn): 242 °C
O=C(O)c1ccc(OCCc2c(CCNS(=O)(=O)Cc3ccc(Cl)c(Cl)c3)n(C(c3ccccc3)c3ccccc3)c3ccc(Cl)cc23)cc1F: 117 to 119 °C
CC(C)(C)N1CC(=O)Nc2ccc(C#C[Si](C)(C)C)cc2C1=O: 243 to 244 °C
Cc1ccc(N2CN(c3ccccc3)C3=NN=CC3=C2N)cc1: 248 to 250 °C

Query: melting point; subject: `CCOC(=O)c1c(N)c(Cl)cn1C`
48 °C

Do the same for `CCOC(=O)c1cn(CCCl)c2nc(N3CCN(C(C)=O)CC3)ncc2c1=O` please
205 to 206 °C

Do the same for `CCCCCCCC1=CC(=O)N(c2ccccc2)C1=CBr` please
63 to 65 °C
